- ASSAYED_SYSTEM: Cytochrome P450 2C9 (Homo sapiens) (UniProt P11712)
- Sequence (P11712 whole entry, looked up): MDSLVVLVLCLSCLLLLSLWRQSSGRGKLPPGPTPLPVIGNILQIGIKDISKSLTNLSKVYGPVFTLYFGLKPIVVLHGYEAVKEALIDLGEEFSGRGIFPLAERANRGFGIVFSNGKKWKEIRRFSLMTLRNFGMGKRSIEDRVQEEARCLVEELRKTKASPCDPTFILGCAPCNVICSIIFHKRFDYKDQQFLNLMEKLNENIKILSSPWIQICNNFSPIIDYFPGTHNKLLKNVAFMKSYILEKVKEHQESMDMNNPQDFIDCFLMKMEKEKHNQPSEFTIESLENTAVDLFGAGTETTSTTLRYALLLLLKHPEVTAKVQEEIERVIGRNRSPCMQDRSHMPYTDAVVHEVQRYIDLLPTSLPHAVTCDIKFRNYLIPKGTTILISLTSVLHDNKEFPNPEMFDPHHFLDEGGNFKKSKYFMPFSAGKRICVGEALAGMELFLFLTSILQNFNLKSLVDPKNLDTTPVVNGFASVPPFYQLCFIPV
- ASSAY_EXPLANATION: Cytochrome P450 family 2 subfamily C member 9 (CYP2C9) small molecule antagonists: luciferase biochemical (cell-free) qHTS assay (AID 1645842); also: nearly all actives have a fitted effect of over 55% in size
- EXPERIMENTAL_CONDITIONS: P450-Glo CYP2C9 enzyme assay, luciferin luminescence; series mostly up to 57.4 µM
- From the text: National Center for Advancing Translational Sciences [NCATS] Assay Overview: Cytochrome P450 (CYP) enzymes are membrane-bound hemeproteins that play a key role in metabolism of drugs and xenobiotics. Assaying the effect of chemicals on CYP isozymes is useful to minimize the adverse drug reactions and toxicities in drug development process. […] The luciferin products formed are detected with a luciferin detection reagent, and the amount of light produced is proportional to CYP activity. […]
Records with an inconclusive call do not appear. The source made the active and inactive calls. Calls follow the shape of the dose curve; as a rule, active = well fitted inhibition curve with a large enough effect in the repeat runs; inconclusive = weak or mixed curves; inactive = no such curve, though single readings can be large or run the other way.
The reply should be one of these categories: active, inactive

COMPOUND | CATEGORY
CCCN1CCCC[C@H]1C(=O)Nc1c(C)cccc1C | inactive
O=C1[C@H]2CCCC[C@H]2C(=O)N1CCCCN1CCN(c2nsc3ccccc23)CC1 | inactive
Cc1ccccc1C(=O)Nc1ccc(C(=O)N2CCCC(N(C)C)c3ccccc32)cc1 (centres undefined) | inactive
CCCCCCCCCCOCC(O)CN (centres undefined) | active
O=C(N/N=C/c1ccccc1O)c1ccncc1 | active
CC(=O)Oc1ccc(C(c2ccc(OC(C)=O)cc2)c2ccccn2)cc1 | active
Cc1c(N(C)CS(=O)(=O)O)c(=O)n(-c2ccccc2)n1C | inactive
O=C1OC2(c3ccc(O)cc3Oc3cc(O)ccc32)c2ccccc21 | inactive
C#C[C@]1(OC(C)=O)CC[C@H]2[C@@H]3CCC4=C[C@@H](OC(C)=O)CC[C@@H]4[C@H]3CC[C@@]21C | active
CN(C(=O)CN(CCO)CC(=O)N(C)C(C)(C)Cc1ccccc1)C(C)(C)Cc1ccccc1 | active

Query: So what was the verdict on CC1(C)O[C@@H]2C[C@H]3[C@@H]4CCC5=CC(=O)CC[C@]5(C)[C@@]4(F)[C@@H](O)C[C@]3(C)[C@]2(C(=O)CCl)O1 in this test?
Result: active

----------
- Tested on: ICS
- ASSAY_EXPLANATION: qHTS profiling for inhibitors of Plasmodium falciparum proliferation (AID 504749); also: nearly all actives have a fitted effect of over 60% in size
- EXPERIMENTAL_CONDITIONS: P. falciparum in erythrocytes, SYBR Green DNA, 72 h; series mostly up to 28.7 µM
Results filed as inconclusive are left out. Activity calls are given as the source filed them. The call rests on the fitted dose curve; in most records, active means well fitted inhibition curve with a large enough effect; inconclusive means small, poorly fitted or top-dose-only effect; inactive means flat fitted curve, though single readings scatter. Numbered stars: 1 amine (or outer) side, 2 acyl side, 3 side chain; on linkers, the order of the positions; unused ones are H or OH. Bridge positions count the residues as written; N and C are the ends. Square brackets hold non-standard residues; d marks the D form. Peptide text beside a SMILES is read from it. I, II: the chains in the order shown. Actinocin(9to1) = Cc1c2oc3c(C)ccc(C(=O)[*:1])c3nc-2c(C(=O)[*:2])c(N)c1=O; NMeV = CN[C@H](C(=O)O)C(C)C; Sar = CNCC(=O)O
The reply should be one of these categories: active, inactive

COMPOUND | CATEGORY
CC1=C(C(=O)OC(C)C)C(c2cccc([N+](=O)[O-])c2)C(C(=O)OC2CN(C(c3ccccc3)c3ccccc3)C2)=C(N)N1 (configuration not stated) | active
CCCCCCCCCCCCCCCCOP(=O)([O-])OCC[N+](C)(C)C | inactive
CCOC(=O)n1ccn(C)c1=S | inactive
CCn1cc(C(=O)O)c(=O)c2cnc(N3CCCC3)nc21 | inactive
C[C@H]1[C@H](NC(=O)/C(=N/OC(C)(C)C(=O)O)c2csc(N)n2)C(=O)N1S(=O)(=O)O (stereo in doubt) | inactive
COc1ccc(/C=C/C(=O)c2ccc(OC)cc2OC)cc1 | active
CCCCC(CC)CN=C(N)NC(N)=NCCCCCCN=C(N)NC(N)=NCC(CC)CCCC (configuration not stated) | active
O=C1c2ccccc2C(=O)C1c1ccccc1 | inactive

Query: So what was the verdict on COc1cc(OC)cc(OC)c1 in this test?
Result: inactive

Query: So what was the verdict on CC(=O)OCC(=O)[C@@]1(OC(C)=O)[C@@H](C)C[C@H]2[C@@H]3C[C@H](F)C4=CC(=O)C=C[C@]4(C)[C@@]3(F)[C@@H](O)C[C@@]21C in this test?
Result: active

Query: So what was the verdict on O=C(CCCN1CCC(O)(c2ccc(Br)cc2)CC1)c1ccc(F)cc1 in this test?
Result: active

Query: So what was the verdict on COC1=CC(=O)C[C@@H](C)[C@]12Oc1c(Cl)c(OC)cc(OC)c1C2=O in this test?
Result: inactive

Query: So what was the verdict on COc1cc2c(cc1OC)C(C(C(=O)N(CCc1ccc(OC)c(OC)c1OC)CCc1ccc(OC)c(OC)c1OC)c1ccccc1)=NCC2 (configuration not stated) in this test?
Result: active

Query: So what was the verdict on O=c1ccc2ccccc2o1 in this test?
Result: inactive

Query: So what was the verdict on Cc1c2oc3c(C)ccc(C(=O)N[C@@H]4C(=O)N[C@H](C(C)C)C(=O)N5CCC[C@H]5C(=O)N(C)CC(=O)N(C)[C@@H](C(C)C)C(=O)O[C@@H]4C)c3nc-2c(C(=O)N[C@@H]2C(=O)N[C@H](C(C)C)C(=O)N3CCC[C@H]3C(=O)N(C)CC(=O)N(C)[C@@H](C(C)C)C(=O)O[C@@H]2C)c(N)c1=O (I: T[dV]P[Sar][NMeV] / II: T[dV]P[Sar][NMeV]; ester I:1-I:C, II:1-II:C; linker I:N-II:N via Actinocin(9to1)) in this test?
Result: active

Query: So what was the verdict on O=c1c(-c2ccccc2)c1-c1ccccc1 in this test?
Result: active

Query: So what was the verdict on c1ccc(-c2ccc(C(c3ccccc3)n3ccnc3)cc2)cc1 (configuration not stated) in this test?
Result: active

----------
- ASSAY_EXPLANATION: qHTS of pediatric cancer cell lines to identify multiple opportunities for drug repurposing: Primary screen for NB-EBc1 cells (AID 1347095)
- EXPERIMENTAL_CONDITIONS: NB-EBc1 neuroblastoma viability, CellTiter-Glo luminescence, 48 h; series mostly up to 46 µM
Records with an inconclusive call do not appear. Calls of active or inactive are those of the source. Calls come from the whole dose curve; as a rule, active = well fitted cell-killing curve with a large enough effect; inconclusive = small, poorly fitted or top-dose-only effect; inactive = no such curve, though single readings can be large or run the other way.
The reply should be one of these categories: T (active), F (inactive)

Consider the worked cases shown below.
MOLECULE | CATEGORY
CN(C)C(=S)SC(=S)N(C)C | T
CCN(CC)C(=O)N1CCN(C)CC1 | F
COc1cc2c(cc1OC)C(=O)C(CC1CCN(Cc3ccccc3)CC1)C2 (stereo not given) | F
COc1cccc2c1C(=O)c1c(O)c3c(c(O)c1C2=O)C[C@@](O)(C(C)=O)C[C@@H]3O[C@H]1C[C@H](N)[C@H](O)[C@H](C)O1 | T

Query: So what was the verdict on CCCCC(CC)CN=C(N)NC(N)=NCCCCCCN=C(N)NC(N)=NCC(CC)CCCC (stereo not given) in this test?
Result: T

----------
- Tested on: N140
- ASSAY_EXPLANATION: qHTS profiling for inhibitors of Plasmodium falciparum proliferation (AID 504749); also: nearly all actives have a fitted effect of over 60% in size
- EXPERIMENTAL_CONDITIONS: P. falciparum in erythrocytes, SYBR Green DNA, 72 h; series mostly up to 28.7 µM
Inconclusive results are not listed. Activity calls are given as the source filed them. Calls follow the shape of the dose curve; as a rule, active = well fitted inhibition curve with a large enough effect; inconclusive = small, poorly fitted or top-dose-only effect; inactive = flat fitted curve, though single readings scatter.
The reply should be one of these categories: Y (active), N (inactive)

MOLECULE | CATEGORY
O=c1c(-c2ccccc2)c1-c1ccccc1 | Y

Query: So what was the verdict on O=C(COc1ccc(Cl)cc1)N1CCN(Cc2ccc3c(c2)OCO3)CC1 in this test?
Result: N

Query: So what was the verdict on CC(=O)Oc1ccc(C(c2ccc(OC(C)=O)cc2)c2ccccn2)cc1 in this test?
Result: N

Query: So what was the verdict on CC(C)COC(=O)c1ccc(N)cc1 in this test?
Result: N

Query: So what was the verdict on CCOc1ccc(NC(=O)CC(C)O)cc1 (stereo not drawn) in this test?
Result: N

Query: So what was the verdict on COc1c2occc2c(OC)c2c(=O)cc(C)oc12 in this test?
Result: N

Query: So what was the verdict on Nc1ccc(/C=C/c2ccc(N)cc2S(=O)(=O)O)c(S(=O)(=O)O)c1 in this test?
Result: N

Query: So what was the verdict on CCC(C(=O)OCCN(CC)CC)c1ccccc1 (stereo not drawn) in this test?
Result: N

----------
- ASSAY_EXPLANATION: Primary qHTS for inhibitors of nuclear receptor binding SET domain protein 2 (NSD2) in an isogenic RCH-ACV NSD2 p.E1099K mutant (9B) (AID 1645876); also: nearly all actives have a fitted effect of over 70% in size; also: potency is read from the fitted curve at half-maximal effect
- EXPERIMENTAL_CONDITIONS: RCH-ACV (leukaemia line) NSD2 E1099K (9B) viability, CellTiter-Glo, 72 h; series mostly up to 44.9 µM
Results filed as inconclusive are left out. Active and inactive are the calls of the source. The call rests on the fitted dose curve; in most records, active means well fitted inhibition curve with a large enough effect; inconclusive means small, poorly fitted or top-dose-only effect; inactive means flat fitted curve, though single readings scatter.
OBSERVABLE: Potency

// worked examples, Potency included
MOLECULE | RESULT
CNC(=O)CN(CCN(CCN(CC(=O)[O-])CC(=O)NC)CC(=O)[O-])CC(=O)[O-].O.[Gd+3] | inactive
Nc1nc2ncc(CNc3ccc(C(=O)N[C@@H](CCC(=O)O)C(=O)O)cc3)nc2c(=O)[nH]1 | inactive
Nc1ccc(C(=O)Nc2ccccc2N)cc1 | 9.44 µM (active)
CCCCCCCCCCCCCCCCOP(=O)([O-])OCC[N+](C)(C)C | 10.6 µM (active)
CC(=O)CC(c1ccc([N+](=O)[O-])cc1)c1c(O)c2ccccc2oc1=O (centres undefined) | inactive

Query: Assign Potency to the following record: CC1=C(C(=O)O)N2C(=O)[C@@H](NC(=O)[C@H](N)c3ccc(O)cc3)[C@H]2SC1
Result: inactive

Query: Assign Potency to the following record: O=C(Nc1ccc(Oc2ccc(Cl)cc2)c(Cl)c1)c1cc(I)cc(I)c1O
Result: inactive

Query: Assign Potency to the following record: NCCCC[C@H](N[C@@H](CCc1ccccc1)C(=O)O)C(=O)N1CCC[C@H]1C(=O)O
Result: inactive

Query: Assign Potency to the following record: CC1(C)O[C@@H]2[C@@H](CO[C@@]3(COS(N)(=O)=O)OC(C)(C)O[C@@H]23)O1
Result: inactive

Reference source: PubChem BioAssay (NCATS)
